Assay: Selectivity ratio of IC50 for human MDA-MB-231 cells to IC50 for MDA-MB-231/Gem cells
Type: functional
property: Ratio IC50

Would you please look over these solved cases?
COCCOc1no[n+]([O-])c1S(=O)(=O)c1ccccc1: 0.3
Cc1c(Cc2ccccc2)c(=O)oc2cc(OCCOc3no[n+]([O-])c3S(=O)(=O)c3ccccc3)ccc12: 0.2
COc1cc(OCCOc2no[n+]([O-])c2S(=O)(=O)c2ccccc2)ccc1C(=O)/C=C/c1ccccc1: 0.05
Cc1c(Cc2ccc(F)cc2)c(=O)oc2cc(OCCOc3no[n+]([O-])c3S(=O)(=O)c3ccccc3)ccc12: 0.1
CNS(=O)(=O)Nc1cccc(Cc2c(C)c3ccc(OCCOc4no[n+]([O-])c4S(=O)(=O)c4ccccc4)cc3oc2=O)c1: 0.02

Dear colleague, please send me the reported Ratio IC50 for COc1cc(OCCOc2no[n+]([O-])c2S(=O)(=O)c2ccccc2)ccc1C(=O)/C=C/c1ccc(F)cc1 when you can.
0.02

----------
Test: Selectivity ratio of IC50 for human KB cells to IC50 for KBV cells
Format: functional
Ratio IC50 values for the compounds below.
Answer with a number only.

Cc1c(Cc2ccccc2)c(=O)oc2cc(OCCOc3no[n+]([O-])c3S(=O)(=O)c3ccccc3)ccc12: 283.9
COc1cc(OCCOc2no[n+]([O-])c2S(=O)(=O)c2ccccc2)ccc1C(=O)/C=C/c1ccc(F)cc1: 164.9
COc1cc(OCCOc2no[n+]([O-])c2S(=O)(=O)c2ccccc2)ccc1C(=O)/C=C/c1ccccc1: 157

Quickly give me recorded Ratio IC50 for CNS(=O)(=O)Nc1cccc(Cc2c(C)c3ccc(OCCOc4no[n+]([O-])c4S(=O)(=O)c4ccccc4)cc3oc2=O)c1
17.5

Give reported Ratio IC50 value for Cc1c(Cc2ccc(F)cc2)c(=O)oc2cc(OCCOc3no[n+]([O-])c3S(=O)(=O)c3ccccc3)ccc12
294

Provide Ratio IC50 value for the following compound: COCCOc1no[n+]([O-])c1S(=O)(=O)c1ccccc1
1.9

----------
Test system: SK-OV-3
Assay: Antiproliferative activity against human SKOV3 cells after 48 hrs by MTT assay
Assay type: functional, cell-based
Conditions: SK-OV-3, 48 h
property: IC50

These solved cases illustrate the format of a correct answer.
Cc1cc(=O)oc2cc(OCCOc3no[n+]([O-])c3S(=O)(=O)c3ccccc3)ccc12: 47.3 nM
COc1cc(OCCOc2no[n+]([O-])c2S(=O)(=O)c2ccccc2)ccc1C(=O)/C=C/c1ccccc1: 35.8 nM
COCCOc1no[n+]([O-])c1S(=O)(=O)c1ccccc1: 3910 nM
Cc1c(Cc2ccc(F)cc2)c(=O)oc2cc(OCCOc3no[n+]([O-])c3S(=O)(=O)c3ccccc3)ccc12: 8.3 nM
Cc1c(Cc2ccccc2)c(=O)oc2cc(OCCOc3no[n+]([O-])c3S(=O)(=O)c3ccccc3)ccc12: 17.3 nM

Report measured IC50; entry is COc1cc(OCCOc2no[n+]([O-])c2S(=O)(=O)c2ccccc2)ccc1C(=O)/C=C/c1ccc(F)cc1
25 nM

Let me know recorded IC50 for CNS(=O)(=O)Nc1cccc(Cc2c(C)c3ccc(OCCOc4no[n+]([O-])c4S(=O)(=O)c4ccccc4)cc3oc2=O)c1 , thanks.
19.2 nM

----------
Test: Antiproliferative activity against human OVCA429 cells after 48 hrs by MTT assay
Format: functional, cell-based
Conditions: OVCA429, 48 h
pIC50: −log10 of the molar value.
Returns met if the recorded pIC50 is greater than or equal to 8, and not met otherwise.

Some solved entries appear below for comparison.
Cc1c(Cc2ccccc2)c(=O)oc2cc(OCCOc3no[n+]([O-])c3S(=O)(=O)c3ccccc3)ccc12: met
Cc1c(Cc2ccc(F)cc2)c(=O)oc2cc(OCCOc3no[n+]([O-])c3S(=O)(=O)c3ccccc3)ccc12: met
Cc1cc(=O)oc2cc(OCCOc3no[n+]([O-])c3S(=O)(=O)c3ccccc3)ccc12: not met

Quick check, pIC50 >= 8? COc1cc(OCCOc2no[n+]([O-])c2S(=O)(=O)c2ccccc2)ccc1C(=O)/C=C/c1ccc(F)cc1
met

Quick check: does COCCOc1no[n+]([O-])c1S(=O)(=O)c1ccccc1 have pIC50 greater than or equal to 8?
not met

Could you tell me if the measured pIC50 of COc1cc(OCCOc2no[n+]([O-])c2S(=O)(=O)c2ccccc2)ccc1C(=O)/C=C/c1ccccc1 reaches 8 or more?
met

----------
Tested on: HeLa
Assay: Antiproliferative activity against human HeLa cells after 48 hrs by MTT assay
Format: functional, cell-based
property: IC50

COc1cc(OCCOc2no[n+]([O-])c2S(=O)(=O)c2ccccc2)ccc1C(=O)/C=C/c1ccc(F)cc1: 6.9 nM
Cc1c(Cc2ccc(F)cc2)c(=O)oc2cc(OCCOc3no[n+]([O-])c3S(=O)(=O)c3ccccc3)ccc12: 2.8 nM
CNS(=O)(=O)Nc1cccc(Cc2c(C)c3ccc(OCCOc4no[n+]([O-])c4S(=O)(=O)c4ccccc4)cc3oc2=O)c1: 15.4 nM

Now look at this entry.
Using known records, supply IC50 for Cc1c(Cc2ccccc2)c(=O)oc2cc(OCCOc3no[n+]([O-])c3S(=O)(=O)c3ccccc3)ccc12
22.9 nM

----------
Tested on: MCF-10A
Assay: Cytotoxicity against human MCF10A cells after 72 hrs by MTS assay
Assay type: cell-based
IC50 overview
Value expressed in nM; do not type the unit.

Cc1cc(=O)oc2cc(OCCOc3no[n+]([O-])c3S(=O)(=O)c3ccccc3)ccc12: 660

Read off the recorded IC50 for Cc1ccc(NC(=O)NCc2ccc3c(c2)CN(C2CCC(=O)NC2=O)C3=O)cc1Cl (stereo not given)
5

----------
The entries below come with measured pIC50 values attached.
Test system: A549
Experiment: Antiproliferative activity against human A549 cells after 48 hrs by MTT assay
Assay type: functional, cell-based
Conditions: A549, 48 h
// field semantics: pIC50 = negative decimal log of concentration (mol/L)

Cc1c(Cc2ccccc2)c(=O)oc2cc(OCCOc3no[n+]([O-])c3S(=O)(=O)c3ccccc3)ccc12: 8.70
Cc1cc(=O)oc2cc(OCCOc3no[n+]([O-])c3S(=O)(=O)c3ccccc3)ccc12: 7.34
CNS(=O)(=O)Nc1cccc(Cc2c(C)c3ccc(OCCOc4no[n+]([O-])c4S(=O)(=O)c4ccccc4)cc3oc2=O)c1: 8.10

Please report the measured pIC50 for Cc1c(Cc2ccc(F)cc2)c(=O)oc2cc(OCCOc3no[n+]([O-])c3S(=O)(=O)c3ccccc3)ccc12
8.43

// fetch pIC50 given entry COCCOc1no[n+]([O-])c1S(=O)(=O)c1ccccc1
5.32

Supply measured pIC50 of COc1cc(OCCOc2no[n+]([O-])c2S(=O)(=O)c2ccccc2)ccc1C(=O)/C=C/c1ccc(F)cc1 in your reply.
8.46

Please supply the value of reported pIC50 for the item COc1cc(OCCOc2no[n+]([O-])c2S(=O)(=O)c2ccccc2)ccc1C(=O)/C=C/c1ccccc1
8.48

----------
System: NCI/ADR-RES
Assay: Antiproliferative activity against human MCF7/ADR cells after 48 hrs by MTT assay
Type: functional, cell-based
property: pIC50
Units for pIC50: none; it is -log10 of a concentration expressed in mol/L.

COc1cc(OCCOc2no[n+]([O-])c2S(=O)(=O)c2ccccc2)ccc1C(=O)/C=C/c1ccccc1: 7.74
COCCOc1no[n+]([O-])c1S(=O)(=O)c1ccccc1: 5.11

Entry Cc1c(Cc2ccccc2)c(=O)oc2cc(OCCOc3no[n+]([O-])c3S(=O)(=O)c3ccccc3)ccc12 needs its pIC50 filled in; supply it.
7.79

Annotate the compound Cc1c(Cc2ccc(F)cc2)c(=O)oc2cc(OCCOc3no[n+]([O-])c3S(=O)(=O)c3ccccc3)ccc12 with its measured pIC50.
8.29

Specify measured pIC50 for Cc1cc(=O)oc2cc(OCCOc3no[n+]([O-])c3S(=O)(=O)c3ccccc3)ccc12 .
6.80

Entry COc1cc(OCCOc2no[n+]([O-])c2S(=O)(=O)c2ccccc2)ccc1C(=O)/C=C/c1ccc(F)cc1 needs its pIC50 filled in; supply it.
7.32

Name the recorded pIC50 of the item CNS(=O)(=O)Nc1cccc(Cc2c(C)c3ccc(OCCOc4no[n+]([O-])c4S(=O)(=O)c4ccccc4)cc3oc2=O)c1 in your answer.
7.30

----------
Tested on: HUVEC
Test: Cytotoxicity against HUVEC after 48 hrs by MTT assay
Format: cell-based
Conditions: Homo sapiens
property: IC50 (nM)
The answer is to be given in nM; state only the numeric part.

Provide only the value of recorded IC50 for Cc1c(Cc2ccccc2)c(=O)oc2cc(OCCOc3no[n+]([O-])c3S(=O)(=O)c3ccccc3)ccc12
440

Identify measured IC50 associated with CNS(=O)(=O)Nc1cccc(Cc2c(C)c3ccc(OCCOc4no[n+]([O-])c4S(=O)(=O)c4ccccc4)cc3oc2=O)c1
190

Give me measured IC50, please, for this compound: COc1cc(OCCOc2no[n+]([O-])c2S(=O)(=O)c2ccccc2)ccc1C(=O)/C=C/c1ccccc1
410

Look up and state reported IC50 for Cc1cc(=O)oc2cc(OCCOc3no[n+]([O-])c3S(=O)(=O)c3ccccc3)ccc12
130

Determine from records and report IC50 for Cc1c(Cc2ccc(F)cc2)c(=O)oc2cc(OCCOc3no[n+]([O-])c3S(=O)(=O)c3ccccc3)ccc12
270

Answer with the recorded IC50 for the compound listed here: COc1cc(OCCOc2no[n+]([O-])c2S(=O)(=O)c2ccccc2)ccc1C(=O)/C=C/c1ccc(F)cc1
360
